measuredOn: Histamine H2 receptor (Homo sapiens, UniProt P25021)
Sequence (P25021 whole entry): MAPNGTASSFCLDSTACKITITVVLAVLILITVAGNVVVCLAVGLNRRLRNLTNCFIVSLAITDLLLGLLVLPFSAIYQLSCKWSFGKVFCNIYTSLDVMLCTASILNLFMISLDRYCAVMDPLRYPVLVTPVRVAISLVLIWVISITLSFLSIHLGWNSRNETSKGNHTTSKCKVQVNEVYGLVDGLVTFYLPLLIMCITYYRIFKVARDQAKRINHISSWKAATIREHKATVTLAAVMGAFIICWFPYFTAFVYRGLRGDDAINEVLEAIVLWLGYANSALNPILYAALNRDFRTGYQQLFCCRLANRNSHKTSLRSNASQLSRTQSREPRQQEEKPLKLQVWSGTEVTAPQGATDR
Assay type: cell membranes, CHO-K1, Membrane
runParameters: cho-k1; note: in other assays of this panel Not Active means under 50% inhibition at 10 µM
propertyName: Ki

>  <substance>
INSULIN HUMAN

>  <Ki>
Not Active

$$$$
>  <substance>
COBALT(II) ACETYLACETONATE

>  <Ki>
Not Active

$$$$
>  <substance>
THIMEROSAL

>  <Ki>
Not Active

$$$$
>  <substance>
STANNOUS FLUORIDE

>  <Ki>
Not Active

$$$$

Then there is this substance:
[in] Any idea what Ki was measured for POLYVINYL ALCOHOL ?
[out] Not Active

Where do the numbers come from? From ChEMBL document CHEMBL1909046.
